# Tested on: HepG2-GM130-SQSTM1
# method: lowest phenotypically active concentration; higher = less potent
# condition set: treatment time: 24 h
Structures can show the parent of a compound that is named as a salt.
quantity name: lowest phenotypically active concentration (µM)

compound | qualifier symbol | reported result
COc1cc2c(Nc3ccc(Br)cc3F)ncnc2cc1OCC1CCN(C)CC1 | = | 3
O=c1cc(-c2ccc(O)cc2)oc2cc(O)cc(O)c12 | = | 9
Nc1nc(Cl)nc2c1ncn2[C@H]1C[C@H](O)[C@@H](CO)O1 | ≤ | 0.3
OC[C@H]1O[C@@H](n2cnc3c(NCc4ccco4)ncnc32)[C@H](O)[C@@H]1O [Kinetin riboside] | = | 3
S=C(S)N1CCCC1 [Pyrrolidinedithiocarbamate ammonium] | = | 9
O=c1cc(N2CCOCC2)oc2c(-c3cccc4c3sc3ccccc34)cccc12 | = | 1
CCOC(=O)Nc1cc(-c2ccc(C)c(NS(C)(=O)=O)c2)nn2c(C)nnc12 | = | 1
CC[C@H](CO)Nc1nc(NCc2ccccc2)c2ncn(C(C)C)c2n1 | = | 9
CCC1=C[C@@H]2CN(C1)Cc1c([nH]c3ccccc13)[C@@](C(=O)OC)(c1cc3c(cc1OC)N(C)[C@H]1[C@@](O)(C(=O)OC)[C@H](OC(C)=O)[C@]4(CC)C=CCN5CC[C@]31[C@@H]54)C2 | ≤ | 0.3
CN(C)CC(=O)Nc1ccc2[nH]c(=O)c3ccccc3c2c1 [PJ 34 hydrochloride] | = | 9
Cc1ccc(/C(=C/CN2CCCC2)c2cccc(/C=C/C(=O)O)n2)cc1 | = | 3
O=C(CCCN1CCC(O)(c2ccc(Cl)cc2)CC1)c1ccc(F)cc1 | = | 9
O=C(Nc1ccncc1)c1cc([N+](=O)[O-])ccc1Cl | = | 9
COc1cc2ncnc(Nc3cccc(Br)c3)c2cc1OC | = | 9
Cc1ccc(C(=O)N(CCCN)[C@@H](c2oc3cc(Cl)ccc3c(=O)c2Cc2ccccc2)C(C)C)cc1 | ≤ | 0.3
CN1CCN(c2ccc(-c3cccc(CN4CCOCC4)c3)cc2NC(=O)c2c[nH]c(=O)cc2C(F)(F)F)CC1 | = | 9
CCCCNNC(=O)c1ccc(Br)cc1 | = | 1
COc1cc(C(=O)N2CCC(N3CCN(C)CC3)CC2)ccc1Nc1ncc2c(n1)N(C)c1ccccc1C(=O)N2C | = | 1
